System: rodent lifetime carcinogenesis bioassay, tumor incidence TD50
Assay: carcinogenic potency in animals, long-term in vivo studies, CPDB compilation (AID 1745844)
Details: mouse; strain B6C3F1; females; inhaled; site: ovary; lesion: granulosa-cell carcinoma; dosed 61 weeks; study length 61 weeks
MEASURED_METRIC: TD50

[ask] Name the recorded TD50 for C=CC=C .
[reply] 7580 mg/kg/day

---

System: rodent lifetime carcinogenesis bioassay, tumor incidence TD50
Assay: carcinogenic potency in animals, long-term in vivo studies, CPDB compilation (AID 1745844)
Details: mouse; strain CD-1 HaM/ICR; males; in feed; site: lung; lesion: several types; types named in the paper; dosed 68 weeks; study length 77 weeks
Active and inactive are the calls of the source. How the calls were made is not given here.
MEASURED_METRIC: TD50

[ask] # input compound: Nc1c(Cl)cc(Cl)cc1Cl ; wanted: its TD50
[reply] 385 mg/kg/day (inactive)
